System: Rattus norvegicus
Test: Antihypertensive activity as percent maximum (0-6 hr) decrease in blood pressure at 135 umol/kg, perorally (~40-50 mg/kg) in 5 spontaneously hypertensive rats (SHR)
Type: functional
QUANTITY: Decrease

Please review the following examples before continuing.
{"SAMPLE_SMILES": "COc1ccc(OC)c2c1C[C@H](NCCCCC(c1ccccc1)c1ccccc1)[C@@H](O)C2.Cl", "Decrease": "10%"}
{"SAMPLE_SMILES": "COc1cc2c(cc1OC)C[C@H](O)[C@@H](NCCC1c3ccccc3-c3ccccc31)C2.Cl", "Decrease": "32%"}
{"SAMPLE_SMILES": "COc1cc2c(cc1OC)C[C@H](OC(C)=O)[C@@H](NCCC(c1ccccc1)c1ccccc1)C2.Cl", "Decrease": "34%"}
{"SAMPLE_SMILES": "COc1ccc(OC)c2c1C[C@H](NCC(c1ccccc1)c1ccccc1)[C@@H](O)C2.Cl", "Decrease": "10%"}

Now consider a different compound.
input: Report measured Decrease; entry is `COc1ccc(OC)c2c1C[C@H](NCCCCc1ccccc1)[C@@H](O)C2.Cl`
output: 26%

* * *

Tested on: Rattus norvegicus
Test: Antihypertensive activity as percent maximum (0-6 hr) decrease in blood pressure at 135 umol/kg, perorally (~40-50 mg/kg) in 5 spontaneously hypertensive rats (SHR)
Format: functional
We begin with a simple list: items and their reported Decrease.
Dear colleague, please return just the value in %, with no unit written.

{"COMPOUND": "COc1ccc(OC)c2c1C[C@H](NCCCc1ccccc1)[C@@H](O)C2.Cl", "MEASURED": 14}

Now consider a different compound.
input: Report measured Decrease; entry is `Cl.O[C@H]1Cc2ccccc2C[C@@H]1NCCC(c1ccccc1)c1ccccc1`
output: 11

* * *

We begin with a simple list: items and their reported Decrease.
Test system: Rattus norvegicus
Experiment: Antihypertensive activity as percent maximum (0-6 hr) decrease in blood pressure at 135 umol/kg, perorally (~40-50 mg/kg) in 5 spontaneously hypertensive rats (SHR)
Type: functional
Dear colleague, please return just the value in %, with no unit written.

input: Report measured Decrease; entry is `Cl.O[C@H]1Cc2cc3c(cc2C[C@@H]1NCCC(c1ccccc1)c1ccccc1)OCO3`
output: 25

input: Report measured Decrease; entry is `COc1ccc(OC)c2c1C[C@H](NCCCC(c1ccccc1)c1ccccc1)[C@@H](O)C2.Cl`
output: 6

input: Report measured Decrease; entry is COc1cc2c(cc1OC)C[C@H](O)[C@@H](NCCC(c1ccccc1)C(C)C)C2.Cl (stereo partly specified)
output: 8

input: Report measured Decrease; entry is `COc1cc2c(cc1OC)C[C@H](O)[C@@H](NC(=O)CC(c1ccccc1)c1ccccc1)C2`
output: 6

* * *

System: Rattus norvegicus
Test: Antihypertensive activity as percent maximum (0-6 hr) decrease in blood pressure at 135 umol/kg, perorally (~40-50 mg/kg) in 5 spontaneously hypertensive rats (SHR)
Format: functional
Please assign not fulfilled whenever Decrease is at or above 20%, and fulfilled whenever it is below.

Please review the entries below; each comes with its answer.
{"COMPOUND": "COc1cc2c(cc1OC)C[C@H](N(C)CCC(c1ccccc1)c1ccccc1)[C@@H](O)C2", "QUALITATIVE_LABEL": "fulfilled"}
{"COMPOUND": "COc1ccc(OC)c2c1C[C@H](NCCC(C1CCCCC1)C1CCCCC1)[C@@H](O)C2.Cl", "QUALITATIVE_LABEL": "not fulfilled"}
{"COMPOUND": "COc1ccc(OC)c2c1C[C@H](NCCCc1c[nH]c3ccccc13)[C@@H](O)C2.Cl", "QUALITATIVE_LABEL": "not fulfilled"}
{"COMPOUND": "COc1cc2c(cc1OC)C[C@H](O)[C@@H](NCCC(c1ccccc1)c1ccccc1OC)C2.Cl (some centres not stated)", "QUALITATIVE_LABEL": "not fulfilled"}
{"COMPOUND": "COc1ccc(OC)c2c1C[C@H](NCCC(c1ccccc1)c1ccccc1)[C@@H](O)C2.Cl", "QUALITATIVE_LABEL": "fulfilled"}

input: Bench note: check whether `Cc1cc2c(cc1C)C[C@H](O)[C@@H](NCCC(c1ccccc1)c1ccccc1)C2.Cl` shows Decrease below 20%
output: fulfilled

input: Bench note: check whether `COc1ccc(OC)c2c1C[C@H](NCCCc1nc3ccccc3s1)[C@@H](O)C2.Cl` shows Decrease below 20%
output: fulfilled
